Test: Steady-state tryptophan fluorescence and CD with and without POPC liposomes
Assay type: physicochemical
Measurement parameters: peptide in phosphate buffer pH 8, no liposomes; 5 μM peptide; excitation 280 nm; 25 °C
Peptide text beside a SMILES is read from it.
Assay metric: maximum position of the fluorescence spectrum λmax, Pep, pH8 (nm)

Molecule | Measured
O=C(O)CC[C@@H]1NC(=O)[C@H](Cc2c[nH]c3ccccc23)NC(=O)[C@H](CS)NC(=O)[C@H](Cc2c[nH]c3ccccc23)NC(=O)[C@H](CCC(=O)O)NC(=O)[C@H](Cc2c[nH]c3ccccc23)NC(=O)[C@H](CCC(=O)O)NC(=O)[C@H](Cc2c[nH]c3ccccc23)NC(=O)[C@H](CCC(=O)O)NC(=O)[C@H](Cc2c[nH]c3ccccc23)NC1=O [c[(WE)4WC]] (cyclo(CWEWEWEWEW)) | 350.5
CC(C)C[C@@H]1NC(=O)[C@H](CS)NC(=O)[C@H](Cc2c[nH]c3ccccc23)NC(=O)[C@H](CCC(=O)O)NC(=O)[C@H](CC(C)C)NC(=O)[C@H](CCC(=O)O)NC(=O)[C@H](CC(C)C)NC(=O)[C@H](CCC(=O)O)NC(=O)[C@H](CC(C)C)NC(=O)[C@H](CCC(=O)O)NC1=O [c[(LE)4WC]] (cyclo(CLELELELEW)) | 348.7
O=C(O)CC[C@@H]1NC(=O)[C@H](Cc2c[nH]c3ccccc23)NC(=O)[C@H](CS)NC(=O)[C@H](Cc2c[nH]c3ccccc23)NC(=O)[C@H](CCC(=O)O)NC(=O)[C@H](Cc2c[nH]c3ccccc23)NC(=O)[C@H](CCC(=O)O)NC(=O)[C@H](Cc2c[nH]c3ccccc23)NC1=O [c[(WE)3WC]] (cyclo(CWEWEWEW)) | 351.0
